This listing pairs molecules with measured fluorescence lifetime.
- Assay: solvent given as SMILES
- Test parameters: in Cc1ccccc1
Provide the measurement as a number trailed by its unit.

CCCCCCCCCCCCn1cccc1/C=C/c1cc(OCCCC)c(/C=C/c2cccn2CCCCCCCCCCCC)cc1OCCCC	1.26 ns
Cc1nnc(-c2cc(-n3c4ccccc4c4ccccc43)c(-n3c4ccccc4c4ccccc43)cc2-c2nnc(C)o2)o1	14.5 ns
CC(=O)c1ccc2ccc3cccc4ccc1c2c34	2.8 ns
COc1ccc(C#Cc2ccc(-c3nn[nH]n3)cc2)cc1OC	0.73 ns

Query molecule follows.
// fluorescence lifetime lookup, key: "CC(C)(C)c1ccc2c(c1)c1cc(C(C)(C)C)ccc1n2-c1ccc(C#Cc2ccccc2)cc1"
1.77 ns

----------
This listing pairs molecules with measured fluorescence lifetime.
- Assay: solvent given as SMILES
- Test parameters: in CC#N
Give a bare numeral; the unit ns is implied.

O=C1c2ccccc2-c2ccc(Nc3nc(Cl)nc(Cl)n3)c3cccc1c23	6.6
N#Cc1ccc(C#Cc2ccc(C#Cc3ccc(C#Cc4ccccc4C#N)cc3C#N)cc2C#N)cc1	1.79
CN(C)CCCN1c2ccccc2Sc2ccccc21	1.85

// fluorescence lifetime lookup, key: "Cc1cc(-c2ccccc2)nc2c1ccc1nc(-c3ccccc3)cn12"
6.97

// fluorescence lifetime lookup, key: "COc1c2ccccc2c(OC)c2c1c1cc(C)ccc1n2C"
31.1

// fluorescence lifetime lookup, key: "COCCN1C(=O)/C(=C/c2cccc(N(C)C)c2)N=C1C"
7.9

// fluorescence lifetime lookup, key: "O=C1NC(=O)c2c1c1c3ccccc3[nH]c1c1[nH]c3ccccc3c21"
10

// fluorescence lifetime lookup, key: "Fc1nc(F)c(F)c(C#Cc2cc3c(cc2C#Cc2c(F)c(F)nc(F)c2F)OC2(CCCCC2)O3)c1F"
5.3

// fluorescence lifetime lookup, key: "Cc1ccc(-[c+]2c3ccccc3oc3ccccc32)cc1"
2.1

// fluorescence lifetime lookup, key: CC1(C)[C@@H]2[C@@H]1[C@]1(c3ccccc3)N=NC2(c2ccccc2)C2C3C=CC(C3)C21 (stereo not given in full)
402

----------
- Assay: solvent given as SMILES
- Test parameters: in C1CCCCC1
Attribute measured: fluorescence lifetime (ns)
Give a bare numeral; the unit ns is implied.

Use the examples below as a reference point.
CC1=C(C(C)(C)C)C(C)=[N+]2C1=C(C)c1c(C)c(C(C)(C)C)c(C)n1[B-]2(F)F	3.91
CC1(C)CC(/N=C/c2ccc3ccc4cccc5ccc2c3c45)CC(C)(C)N1	7.3
Cc1c2oc3c(C)c(N)cc(C(=O)NC4OC(=O)C(C(C)C)N(C)C(=O)CN(C)C(=O)C5CCCN5C(=O)C(C(C)C)NC4=O)c3nc-2c(C(=O)NC2OC(=O)C(C(C)C)N(C)C(=O)CN(C)C(=O)C3CCCN3C(=O)C(C(C)C)NC2=O)c(N)c1=O (stereo not drawn)	1.07
COC(=O)C(Cc1ccc2oc(-c3ccc4c(c3)c3ccccc3n4-c3ccccc3)nc2c1)NC(=O)OC(C)(C)C (stereo not drawn)	2.29
Cc1ccc(C2=C3C=CC(C#Cc4ccccc4)=[N+]3[B-](F)(F)n3c(C#Cc4ccccc4)ccc32)cc1	6.58

// fluorescence lifetime lookup, key: "CC(=O)c1ccc(-c2nc3ccc(N(C)C)c(Br)c3s2)cc1"
0.1

// fluorescence lifetime lookup, key: "Clc1ccc(/C=C/c2nc3ccccc3o2)cc1"
0.2

// fluorescence lifetime lookup, key: "C(C#Cc1ccc2ccc3cccc4ccc1c2c34)#Cc1cccc2ccccc12"
0.8
